# target desc: human FGFR2b extracellular domain (human, UniProt P21802)
# Sequence (P21802 22-377): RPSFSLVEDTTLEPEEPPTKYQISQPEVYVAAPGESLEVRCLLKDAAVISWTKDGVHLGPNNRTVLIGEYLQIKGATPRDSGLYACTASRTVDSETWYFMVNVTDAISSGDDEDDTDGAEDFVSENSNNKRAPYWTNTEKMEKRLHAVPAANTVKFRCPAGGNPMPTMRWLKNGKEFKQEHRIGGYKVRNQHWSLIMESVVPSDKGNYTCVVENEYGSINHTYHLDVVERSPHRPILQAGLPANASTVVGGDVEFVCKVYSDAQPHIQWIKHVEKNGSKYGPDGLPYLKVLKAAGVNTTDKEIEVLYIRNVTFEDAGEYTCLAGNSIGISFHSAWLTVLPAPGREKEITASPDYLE
# measurement notes: BLI
quantity name: Kd
Param answer (str): number followed by unit.

## Input Suppose we examine the binder 3B7 (antibody, V domains shown) VH: EVQLQQSGAELVKPGASVKMSCKASGYTFRYYNMHWVKRTPGQGLEWIGLIYPDNGDTSYNQKFKGKATLTADTSSSTAYMQLSSLTSEDSAVYYCARGGFDYWGQGTTLTVSS VL: DIQMTQSPASLSASVGETVTITCGASENIYGALNWYQRKQGKSPQLLIYGATNLADGMSSRFSGSGSGRQYSLKISSLHPDDVATYYCQNVLSTPYTFGGGTKLELK ; what Kd value has been reported?
## Output 7.6 nM

// next item, Kd requested
## Input Suppose we examine the binder 1D7 (antibody, V domains shown) VH: QIQLQQSGAELVKPGASVKMSCKASGYTFRYYNMHWVKRTPGQGLEWIGLIYPDNGDTSYNQKFKGKATLTADTSSSTAYMQLSSLTSEDSAVYYCARGGLDYWGQGTSLTVSS VL: DIQMTQSPSSMSASLGDRITITCQATQDIVKNLNWYQQKPGKPPSFLIYYATELAEGVPSRFSGSGSGSDYSLTISNLESEDFADYYCLQFYEFPLTFGAGTKLELK ; what Kd value has been reported?
## Output 4.51 nM
